Each entry below carries its recorded EC50.
TEST_SYSTEM: human mGluR3 (hmGluR3) (Homo sapiens, UniProt Q14832)
Sequence (Q14832 23-879): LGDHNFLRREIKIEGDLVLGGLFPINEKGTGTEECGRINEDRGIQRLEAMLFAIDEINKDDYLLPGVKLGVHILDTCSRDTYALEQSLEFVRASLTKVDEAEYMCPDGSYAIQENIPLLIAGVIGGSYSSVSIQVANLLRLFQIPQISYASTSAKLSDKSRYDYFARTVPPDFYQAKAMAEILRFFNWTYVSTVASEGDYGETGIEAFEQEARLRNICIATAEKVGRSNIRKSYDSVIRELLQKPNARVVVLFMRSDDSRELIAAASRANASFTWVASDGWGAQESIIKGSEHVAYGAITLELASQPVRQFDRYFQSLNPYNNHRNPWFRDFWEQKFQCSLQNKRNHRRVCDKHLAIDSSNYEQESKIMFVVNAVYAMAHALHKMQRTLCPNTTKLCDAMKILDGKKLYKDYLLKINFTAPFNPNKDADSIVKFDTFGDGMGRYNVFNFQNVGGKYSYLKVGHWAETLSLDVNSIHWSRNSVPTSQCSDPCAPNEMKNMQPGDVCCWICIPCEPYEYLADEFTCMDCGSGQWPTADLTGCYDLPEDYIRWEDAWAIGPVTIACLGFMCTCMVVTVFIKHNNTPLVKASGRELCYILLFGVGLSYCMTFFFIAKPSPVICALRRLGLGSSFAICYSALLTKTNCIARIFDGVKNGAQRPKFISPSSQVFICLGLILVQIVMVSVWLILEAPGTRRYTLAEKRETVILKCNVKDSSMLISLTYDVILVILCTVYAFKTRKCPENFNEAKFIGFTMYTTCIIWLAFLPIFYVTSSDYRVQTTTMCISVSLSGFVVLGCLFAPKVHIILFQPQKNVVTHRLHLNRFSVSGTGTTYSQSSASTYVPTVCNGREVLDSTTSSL
ASSAY_NAME: Human mGluR3 positive allosteric modulator evaluation using Ca++ functional assay
CONDITION_NOTES: hmGluR3 transiently over-expressed in HEK-293 cells; stimulated by EC50 glutamate concentration; intracellular Ca2+ (Fluo4AM, FLIPR Tetra)
PROPERTY_LABEL: EC50

[[record]]
query_smiles = "CN1C(=O)c2cc(-c3ccccc3)cn2-c2cc(-c3cccc(C(=O)O)c3)ccc2C12CC2"
test_system = "human mGluR3 (hmGluR3) (Homo sapiens, UniProt Q14832)"
endpoint_result = "< 100 nM"

[[record]]
query_smiles = "CN1C(=O)c2cc(-c3ccccc3)cn2-c2cc(-c3ccncc3)ccc2C12CC2"
test_system = "human mGluR3 (hmGluR3) (Homo sapiens, UniProt Q14832)"
endpoint_result = "< 100 nM"

[[record]]
query_smiles = "Cc1ncccc1-c1ccc2c(c1)-n1cc(Cl)cc1C(=O)N(C)C21CC1"
test_system = "human mGluR3 (hmGluR3) (Homo sapiens, UniProt Q14832)"
endpoint_result = "< 100 nM"

[[record]]
query_smiles = "CCc1ncccc1-c1ccc2c(c1)-n1cccc1C(=O)N(C)C21CC1"
test_system = "human mGluR3 (hmGluR3) (Homo sapiens, UniProt Q14832)"
endpoint_result = "100 to 1000 nM"

[[record]]
query_smiles = "CN1C(=O)c2cc(-c3ccccc3)nn2-c2cc(-c3ccccc3Cl)ccc2C12CC2"
test_system = "human mGluR3 (hmGluR3) (Homo sapiens, UniProt Q14832)"
endpoint_result = "> 1000 nM"

[[record]]
query_smiles = "Cc1ncccc1-c1ccc2c(c1)-n1cc(-c3ccc(Cl)cc3)cc1C(=O)N(C)C21CC1"
test_system = "human mGluR3 (hmGluR3) (Homo sapiens, UniProt Q14832)"
endpoint_result = "100 to 1000 nM"

[[record]]
query_smiles = "CN1C(=O)c2cccn2-c2cc(-c3ccc(F)nc3)cc(F)c2C12CC2"
test_system = "human mGluR3 (hmGluR3) (Homo sapiens, UniProt Q14832)"
endpoint_result = "< 100 nM"

[[record]]
query_smiles = "CCc1ncccc1-c1ccc2c(c1)-n1cc(-c3ccnn3C)cc1C(=O)N(C)C21CC1"
test_system = "human mGluR3 (hmGluR3) (Homo sapiens, UniProt Q14832)"
endpoint_result = "< 100 nM"

